system.tested: T1, recombinant human interleukin 12 (p40/p35 heterodimer) (human, UniProt P29460 23-328; P29459 23-219)
T1 chain 1: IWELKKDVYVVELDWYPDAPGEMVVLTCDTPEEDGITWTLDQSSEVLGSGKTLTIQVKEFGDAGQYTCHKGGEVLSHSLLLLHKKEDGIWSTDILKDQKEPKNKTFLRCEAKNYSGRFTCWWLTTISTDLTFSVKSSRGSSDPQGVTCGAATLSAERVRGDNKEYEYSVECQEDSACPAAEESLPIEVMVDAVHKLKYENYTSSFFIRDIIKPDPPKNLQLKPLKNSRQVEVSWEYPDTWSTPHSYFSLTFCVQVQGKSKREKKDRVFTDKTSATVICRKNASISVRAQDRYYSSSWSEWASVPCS
T1 chain 2: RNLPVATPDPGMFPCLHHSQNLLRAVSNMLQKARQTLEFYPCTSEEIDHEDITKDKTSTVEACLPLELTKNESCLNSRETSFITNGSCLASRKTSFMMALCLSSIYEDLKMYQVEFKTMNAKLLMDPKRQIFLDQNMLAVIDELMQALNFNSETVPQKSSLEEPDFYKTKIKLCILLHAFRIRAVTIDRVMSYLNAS
test.summary: BIAcore
koff below 0.0004 s⁻¹ gives condition not met; koff at or above it gives condition met.

Input line: Confirm if koff reported for the binder FIRYFGSNKYYADSVKG [Y61 H53 F] is 0.0004 s⁻¹ or above.
Output line: condition met

Input line: What do you get for CIRYDGSNKYYADSVKG [Y61 H50 C] ?
Output line: condition not met

Input line: Can you check FIKYDGSNKYYADSVKG [Y61 H52 K] next?
Output line: condition not met

Input line: FIRYKGSNKYYADSVKG [Y61 H53 K] , same question.
Output line: condition met

Input line: Field entry: FIRYIGSNKYYADSVKG [Y61 H53 I]
Output line: condition met

Input line: And QIRYDGSNKYYADSVKG [Y61 H50 Q] ?
Output line: condition met

Input line: Again, but for YIRYDGSNKYYADSVKG [Y61 H50 Y]
Output line: condition not met

Input line: Next binder up: FIRYNGSNKYYADSVKG [Y61 H53 N]
Output line: condition met

Input line: Now the binder NIRYDGSNKYYADSVKG [Y61 H50 N]
Output line: condition not met

Input line: Would you mind doing TIRYDGSNKYYADSVKG [Y61 H50 T] as well?
Output line: condition not met

Input line: Next entry: FIRYTGSNKYYADSVKG [Y61 H53 T]
Output line: condition met

Input line: Consider next the binder KIRYDGSNKYYADSVKG [Y61 H50 K] in the same way.
Output line: condition met

Input line: What do you get for FIRYYGSNKYYADSVKG [Y61 H53 Y] ?
Output line: condition met

Input line: Now consider EIRYDGSNKYYADSVKG [Y61 H50 E] .
Output line: condition not met
